For each record, write down the corresponding activation at 1.1 µM.
- Assay target: human GPR131 (Homo sapiens)
- Construct: expressed in transfected cells
- Sequence (Q8TDU6 whole entry): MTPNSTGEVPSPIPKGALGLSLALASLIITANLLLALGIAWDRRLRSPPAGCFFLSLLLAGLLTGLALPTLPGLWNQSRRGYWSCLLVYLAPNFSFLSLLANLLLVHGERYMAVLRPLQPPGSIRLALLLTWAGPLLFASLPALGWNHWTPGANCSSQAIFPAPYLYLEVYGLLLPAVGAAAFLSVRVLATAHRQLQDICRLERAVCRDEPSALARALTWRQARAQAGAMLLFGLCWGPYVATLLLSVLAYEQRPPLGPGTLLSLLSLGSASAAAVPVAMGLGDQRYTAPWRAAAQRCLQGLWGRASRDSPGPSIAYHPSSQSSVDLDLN
- Assay: Stimulation of cAMP in stable cell line expressing human GPR131 (FRET cAMP kit)
- Assay type: cell-based
- Assay setup: 0.5 h; 1.1 μM compound, relative to maximal stimulatory activity of lithocholic acid at 3.3 μM; 30 minutes at 37° C.; read-out: Percent Activity @ 1.1 μM (of 3.3 uM LCA) (%)
Give your result in % as a bare value.

Task: # input compound: Cc1nn(C)cc1CN(C)C(=O)c1cnc(SCc2nc3ccccc3o2)n1-c1ccc(F)cc1 ; wanted: its activation at 1.1 µM
Output: 100

Task: # input compound: Cc1cc(CN(C)C(=O)c2cnc(SCCc3ccc(F)c(Cl)c3)n2-c2ccc(F)cc2)ccn1 ; wanted: its activation at 1.1 µM
Output: 96

Task: # input compound: COc1ccc(CN(C)C(=O)c2cnc(SCc3c(F)ccc(F)c3F)n2-c2ccc(F)cc2)cc1OC ; wanted: its activation at 1.1 µM
Output: 93

Task: # input compound: CCc1noc(CSc2ncc(C(=O)N(C)Cc3cn(C)nc3C)n2-c2ccc(F)cc2)n1 ; wanted: its activation at 1.1 µM
Output: 98

Task: # input compound: Cc1nn(C)cc1CN(C)C(=O)c1cnc(SCc2cc(C(C)C)no2)n1-c1ccc(F)cc1 ; wanted: its activation at 1.1 µM
Output: 97

Task: # input compound: Cc1csc(CSc2ncc(C(=O)N(C)Cc3cn(C)nc3C)n2-c2ccc(F)cc2)n1 ; wanted: its activation at 1.1 µM
Output: 98

Task: # input compound: CN(Cc1ccncc1)C(=O)c1cnc(SCc2c(F)ccc(F)c2F)n1-c1ccc(F)cc1 ; wanted: its activation at 1.1 µM
Output: 100

Task: # input compound: Cc1nn(C)cc1CN(C)C(=O)c1cnc(SCc2ncccc2Cl)n1-c1ccc(F)cc1 ; wanted: its activation at 1.1 µM
Output: 99

Task: # input compound: COc1ccc(Cl)c(CSc2ncc(C(=O)N(C)Cc3cn(C)nc3C)n2-c2ccc(F)cc2)c1F ; wanted: its activation at 1.1 µM
Output: 100

Task: # input compound: Cc1nn(C)cc1CN(C)C(=O)c1cnc(SCc2ccncc2)n1-c1ccc(F)cc1 ; wanted: its activation at 1.1 µM
Output: 85

Task: # input compound: CCN(Cc1ccncc1)C(=O)c1cnc(SCc2c(Cl)ccc(C)c2F)n1-c1ccc(F)cc1 ; wanted: its activation at 1.1 µM
Output: 100

Task: # input compound: CN(Cc1ccncc1)C(=O)c1cnc(SCc2c(F)ccc(F)c2Cl)n1-c1ccc(F)cc1 ; wanted: its activation at 1.1 µM
Output: 99

Task: # input compound: Cc1nn(C)cc1CN(C)C(=O)c1cnc(CSc2c(F)c(F)cc(F)c2F)n1-c1ccc(F)cc1 ; wanted: its activation at 1.1 µM
Output: 98

Task: # input compound: COc1ccc(Cl)c(CSc2nnc(C(=O)N(C)Cc3ccncc3)n2-c2ccc(F)cc2)c1F ; wanted: its activation at 1.1 µM
Output: 98

Task: # input compound: Cc1nn(C)cc1CN(C)C(=O)c1cnc(SCc2ccccc2Cl)n1-c1ccc(F)cc1 ; wanted: its activation at 1.1 µM
Output: 98

Task: # input compound: Cc1ccc(-n2c(C(=O)N(C)Cc3ccncc3)cnc2SCc2c(F)cccc2Cl)cc1 ; wanted: its activation at 1.1 µM
Output: 98

Task: # input compound: Cc1cc(CN(C)C(=O)c2cnc(SCc3c(F)ccc(F)c3F)n2-c2ccc(F)cc2)ccn1 ; wanted: its activation at 1.1 µM
Output: 100

Task: # input compound: Cc1ccc(Cl)c(CSc2nnc(C(=O)N(C)Cc3ccncc3)n2-c2ccc(F)cc2)c1F ; wanted: its activation at 1.1 µM
Output: 98

Task: # input compound: Cc1nn(C)cc1CN(C)C(=O)c1cnc(SCc2c(F)cccc2Cl)n1-c1ccc(F)cc1 ; wanted: its activation at 1.1 µM
Output: 100

Task: # input compound: CN(Cc1ccncc1)C(=O)c1cnc(SCc2cccc(C(F)(F)F)c2F)n1-c1ccc(F)cc1 ; wanted: its activation at 1.1 µM
Output: 100

Task: # input compound: CN(Cc1ccncc1)C(=O)c1cnc(SCc2ccccc2F)n1-c1ccc(F)cc1 ; wanted: its activation at 1.1 µM
Output: 100

Task: # input compound: Cc1nn(C)cc1CN(C)C(=O)c1cnc(COc2c(F)ccc(F)c2F)n1-c1ccc(F)cc1 ; wanted: its activation at 1.1 µM
Output: 83

Task: # input compound: Cc1cc(CN(C)C(=O)c2cnc(S(=O)(=O)CCc3ccc(F)c(Cl)c3)n2-c2ccc(F)cc2)ccn1 ; wanted: its activation at 1.1 µM
Output: 86

Task: # input compound: Cc1nn(C)cc1CN(C)C(=O)c1cnc(SCc2ccccc2)n1-c1ccc(F)cc1 ; wanted: its activation at 1.1 µM
Output: 99

Task: # input compound: Fc1ccc(-n2c(COCc3ccncc3)cnc2SCc2c(F)ccc(F)c2F)cc1 ; wanted: its activation at 1.1 µM
Output: 100

Task: # input compound: O=C(c1cnc(SCc2c(F)cccc2Cl)n1-c1ccc(F)cc1)N1CCCC1c1ccncc1 (stereo not shown) ; wanted: its activation at 1.1 µM
Output: 95

Task: # input compound: CN(Cc1ccnc(C(F)(F)F)c1)C(=O)c1cnc(SCc2c(F)ccc(F)c2F)n1-c1ccc(F)cc1 ; wanted: its activation at 1.1 µM
Output: 86

Task: # input compound: Cc1cc(CN(C)C(=O)c2cnc(I)n2-c2ccc(F)cc2)ccn1 ; wanted: its activation at 1.1 µM
Output: 87

Task: # input compound: CN(Cc1ccncc1)C(=O)c1cnc(SCc2cc(F)ccc2Cl)n1-c1ccc(F)cc1 ; wanted: its activation at 1.1 µM
Output: 98

Task: # input compound: Cc1nn(C)cc1C(C)N(C)C(=O)c1cnc(SCc2c(F)ccc(F)c2F)n1-c1ccc(F)cc1 (stereo not shown) ; wanted: its activation at 1.1 µM
Output: 96

Task: # input compound: CN(Cc1ccncc1)C(=O)c1cnc(CCc2c(F)ccc(F)c2F)n1-c1ccc(F)cc1 ; wanted: its activation at 1.1 µM
Output: 95
